testedTarget: Human cytomegalovirus protease (assemblin) (Human herpesvirus 5)
assaySummary: Inhibitory activity against HCMV protease by HPLC assay

{"columns": ["testSmiles", "testedTarget", "IC50 / µM"],
 "data": [
  ["O=C1C(Cl)=C(C2CCCCCC2)C(=O)c2ccccc21", "Human cytomegalovirus protease (assemblin) (Human herpesvirus 5)", 67],
  ["COC(=O)CC1=C(Cl)C(=O)c2ccccc2C1=O", "Human cytomegalovirus protease (assemblin) (Human herpesvirus 5)", 148],
  ["CC1(C)CC(=O)C(C2=C(Cl)C(=O)c3ccccc3C2=O)C(=O)C1", "Human cytomegalovirus protease (assemblin) (Human herpesvirus 5)", 150],
  ["O=C1C(OC2CCCCC2)=C(C2CCCCC2)C(=O)c2ccccc21", "Human cytomegalovirus protease (assemblin) (Human herpesvirus 5)", 110]
]}

====

Recorded pIC50 by entry
testedTarget: Human cytomegalovirus protease (assemblin) (Human herpesvirus 5)
assaySummary: Inhibitory activity against HCMV protease by HPLC assay
pIC50: −log10 of the molar value.

{"columns": ["compound", "pIC50"],
 "data": [
  ["CC(=O)C(C(C)=O)C1=C(Cl)C(=O)c2ccccc2C1=O", 6.14],
  ["CC(=O)C(C(=O)OCc1ccccc1)C1=C(Cl)C(=O)c2ccccc2C1=O (centres undefined)", 6.15],
  ["CC(=O)C(C(=O)OC(C)C)C1=C(Cl)C(=O)c2ccccc2C1=O (centres undefined)", 5.04],
  ["CCOC(=O)C(C(C)=O)C1=C(Cl)C(=O)c2ccccc2C1=O (centres undefined)", 5.32]
]}

====

testedTarget: Human cytomegalovirus protease (assemblin) (Human herpesvirus 5)
assaySummary: Inhibitory activity against HCMV protease by SPA assay
Recorded measurements of IC50, one per entry
measuredMetric: IC50 (nM)

{"columns": ["compound", "measuredMetric", "measurement"],
 "data": [
  ["CC(=O)C(C(C)=O)C1=C(Cl)C(=O)c2ccccc2C1=O", "IC50", 800],
  ["CCOC(=O)C(C(C)=O)C1=C(Cl)C(=O)c2ccccc2C1=O (centres undefined)", "IC50", 1450],
  ["CC(=O)C(C(=O)OCc1ccccc1)C1=C(Cl)C(=O)c2ccccc2C1=O (centres undefined)", "IC50", 730],
  ["CC(=O)C(C(=O)OC(C)C)C1=C(Cl)C(=O)c2ccccc2C1=O (centres undefined)", "IC50", 2680]
]}

Cited source: BindingDB's records for doi:10.1016/s0960-894x(99)00489-8
